Origin of values: PubChem BioAssay

- Test system: Human papillomavirus type 1a E7 protein (residues 1-88)
- test: HPV1a E7 small-molecule binders, primary screen, biochemical, small-molecule microarray, residues 1-88, 635 nm (AID 1129)
- test_settings: small-molecule microarray binding, fluorescence 635 nm; higher = more signal
For each record, write down the corresponding composite z-score.
Numbers only.

[
  {
    "compound": "COc1ccc(C#Cc2ccc3c(c2)[C@]2(C(=O)N3)[C@H](c3ccc(OCCO)cc3)N3[C@H](c4ccccc4)[C@H](c4ccccc4)OC(=O)[C@H]3[C@@H]2C(=O)Nc2nc3ccccc3s2)cc1",
    "composite z-score": 1.17
  },
  {
    "compound": "O=C1NC(=O)C2C1C=CC(C(O)c1cccs1)N2Nc1ccccn1 (centres undefined)",
    "composite z-score": 0.532
  },
  {
    "compound": "O=C1C2C=CC(C(O)c3cccc4ccccc34)N(n3cnnc3)C2C(=O)N1Cc1ccccc1 (centres undefined)",
    "composite z-score": -0.0247
  },
  {
    "compound": "[N-]=[N+]=Nc1ccccc1[C@@H]1OC(c2ccc(OCCCO)cc2)=N[C@]1(CCS(=O)(=O)c1ccccc1)C(=O)N1CCCCC1",
    "composite z-score": 1.23
  },
  {
    "compound": "COCCOC(=O)N1C(=O)[C@@]2(c3cc(C#Cc4ccc(OC)cc4)ccc31)[C@H](c1ccc(O)cc1)N1[C@H](c3ccccc3)[C@H](c3ccccc3)OC(=O)[C@H]1[C@@H]2C(=O)N1CCN(c2ncccn2)CC1",
    "composite z-score": 1.18
  },
  {
    "compound": "C=CCC(OC(C)=O)[C@@H]1[C@@H](N(Cc2cc3ccccc3o2)C(=O)c2ccc(-c3ccccc3)cc2)c2cc(OCCCO)ccc2N1C(=O)Cc1ccc2ccccc2c1 (some centres undefined)",
    "composite z-score": -0.321
  },
  {
    "compound": "C=CCN1C(=O)[C@@]2(O[C@@H](CCO)[C@H]([Si](C)(C)c3ccc(OC)cc3)[C@H]2C)c2cc(NC(C)=O)ccc21",
    "composite z-score": 1.21
  },
  {
    "compound": "COc1ccc([Si](C)(C)[C@H]2[C@H](CC(=O)N3CCC[C@H]3CO)O[C@@]3(C(=O)N(c4ccccc4)c4ccccc43)[C@@H]2C)cc1",
    "composite z-score": 0.0005
  },
  {
    "compound": "COC(=O)[C@@]1(Cc2ccc(OC)cc2)[C@H]2c3cc(C(=O)N(C)C)n(CCSCCO)c3C[C@H]2CN1C(=O)c1ccccc1",
    "composite z-score": 1.32
  },
  {
    "compound": "C=C(CCCC)/C(=C/C[C@@H](OC(=O)c1ccncc1)c1ccc(CO)o1)c1cc(C(=O)OC)ccc1OC",
    "composite z-score": 1.23
  }
]

State recorded composite z-score for all listed compounds.
1. CN1C(=O)C2C(C1=O)C1C=C(c3ccc(CO)cc3)C2C(C2CC2)N1Cc1sc2ccccc2c1Cl (centres undefined)
2. COC(=O)[C@@]1(Cc2ccc(F)cc2)[C@H]2c3cc(C(=O)N(C)C)n(CCCNc4ccc(C(F)(F)F)cc4Cl)c3C[C@H]2CN1C(=O)c1ccccc1
3. Cc1ccc(C(C)CC(O)C2C=CC3C(=O)NC(=O)C3N2Nc2ccccn2)o1 (centres undefined)
4. O=C(NCc1ccccc1)[C@@H]1c2ccccc2C(=O)N(Cc2cc(F)cc(C(F)(F)F)c2)[C@H]1c1ccc(CO)cc1

Outgoing:
1: 1.26; 2: 1.24; 3: -0.722; 4: 1.19
